Experimental target: KRAS G12C (Homo sapiens (Human), UniProt P01116, C118A/G12C)
Sequence (P01116 other isoform, or with tags, fused parts or gaps G12C/C118A): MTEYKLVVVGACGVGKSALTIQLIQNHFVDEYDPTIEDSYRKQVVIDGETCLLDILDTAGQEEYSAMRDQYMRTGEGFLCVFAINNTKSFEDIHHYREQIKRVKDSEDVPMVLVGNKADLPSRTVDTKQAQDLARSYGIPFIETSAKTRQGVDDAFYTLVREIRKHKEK
Procedure summary: 2 h coupled exchange assay
Assay type: biochemical
Applied conditions: Avg 2 h Coupled exchange IC50, 2 h compound pre-incubation
Readout kind: log10 of IC50 (log10 of the value in nM)
Reminder: these figures are log10 of reported IC50, in nM before transformation.

- Molecule: "C=CC(=O)N1CC2(CCN(c3nc4cc(-c5scnc5C)cnc4c(-c4ccc(F)cc4F)c3C#N)C2)C1"
  log10 of IC50: 1.98
- Molecule: "C=CC(=O)N1CC2(CCN(c3nc4c(c(-c5ccc(F)cc5Cl)c3C#N)CCC(c3scnc3C)=C4)C2)C1 (atropisomer, axis not shown; (P)) [Example 23-33]"
  log10 of IC50: 2.00
- Molecule: "C=CC(=O)N1CC2(CCN(c3nc4c(c(-c5cccc6cc(O)ccc56)c3F)COC(C)(C)C4)C2)C1 [Example 14-65]"
  log10 of IC50: 2.56
- Molecule: "C=CC(=O)N1CC2(CCN(c3nc4c(c(-c5cc(O)ccc5Cl)c3C#N)CCN(c3scnc3C)C4)C2)C1 (single isomer, unassigned) [Example 21-24]"
  log10 of IC50: 1.26
- Molecule: "C=CC(=O)N1CC2(CCN(c3nc4c(c(-c5cc(O)ccc5C(F)(F)F)c3C#N)COC(C)(C)C4)C2)C1"
  log10 of IC50: 2.03
- Molecule: "C=CC(=O)N1CC2(CCN(c3nc4c(c(-c5c(C)ccc6[nH]ncc56)c3C)CCN(C(C)C)C4)C2)C1 (single isomer, unassigned) [Example 18-22]"
  log10 of IC50: 3.84

Retrieve log10 of IC50 measured for C=CC(=O)N1CC2(CCN(c3nc4c(c(-c5ccc(F)c6sc(N)nc56)c3C)COC(C)(C)C4)C2)C1 [Example 14-27] and print it.
2.21
